B1: library; a variant is named by its letters at N, in order (parent)
chain: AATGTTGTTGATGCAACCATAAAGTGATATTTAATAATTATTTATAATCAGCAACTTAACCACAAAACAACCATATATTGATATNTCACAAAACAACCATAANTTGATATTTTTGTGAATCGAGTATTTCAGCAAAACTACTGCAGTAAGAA

Variants of: B1
experiment_notes: relative integration efficiency (T-LR orientation) vs wild-type transposon end (log2 (normalized fold change)); transposon end mutated: left end; higher = more efficient transposition
test_context: with VchCAST RNA-guided transposition machinery (E. coli BL21(DE3) host, lacZ target)
The threshold is inclusive: relative integration efficiency (log2) of exactly -0.3 counts as 1; values below receive 0.

[
  {
    "mutant_id": "CG G4T T5G",
    "answer_label": 0
  },
  {
    "mutant_id": "CG T116A",
    "answer_label": 1
  },
  {
    "mutant_id": "CG A96T C97G",
    "answer_label": 0
  },
  {
    "mutant_id": "CG T86A",
    "answer_label": 1
  },
  {
    "mutant_id": "TA A22T G24T T31C A33C A70C T76A T86G A96C T110A T113A",
    "answer_label": 1
  },
  {
    "mutant_id": "TA A16C G24T T30A A70C T76A T86G T104G T113A",
    "answer_label": 0
  },
  {
    "mutant_id": "CG T79G",
    "answer_label": 0
  },
  {
    "mutant_id": "CG A101G",
    "answer_label": 0
  },
  {
    "mutant_id": "CG C49A A50T C52T T56C T57A C60A C61G A62T C63A",
    "answer_label": 0
  },
  {
    "mutant_id": "CG A58C",
    "answer_label": 1
  },
  {
    "mutant_id": "CG A62T",
    "answer_label": 1
  },
  {
    "mutant_id": "CG C89G A90T",
    "answer_label": 1
  },
  {
    "mutant_id": "CG A53T",
    "answer_label": 1
  },
  {
    "mutant_id": "CG T3G G4T",
    "answer_label": 1
  },
  {
    "mutant_id": "CG C55A",
    "answer_label": 1
  },
  {
    "mutant_id": "CG A107G",
    "answer_label": 0
  },
  {
    "mutant_id": "TA A16C G24T T32G A33C T76A T78G C87A A96C T112G T113C",
    "answer_label": 0
  },
  {
    "mutant_id": "CG A22G",
    "answer_label": 0
  },
  {
    "mutant_id": "CG T25G T79G T105G",
    "answer_label": 0
  },
  {
    "mutant_id": "CG A22T T76A A102T",
    "answer_label": 1
  },
  {
    "mutant_id": "CG T32G T86G T112G",
    "answer_label": 0
  },
  {
    "mutant_id": "CG T110G T111G T112G T113G",
    "answer_label": 0
  },
  {
    "mutant_id": "CG T57A",
    "answer_label": 1
  },
  {
    "mutant_id": "CG T9A G10C",
    "answer_label": 0
  },
  {
    "mutant_id": "CG A36G",
    "answer_label": 1
  },
  {
    "mutant_id": "CG A96C C97A",
    "answer_label": 0
  },
  {
    "mutant_id": "CG A75C T76G A77C T78G",
    "answer_label": 0
  },
  {
    "mutant_id": "TA A16C G24T T32G A33C T76A T78G C87A T104G T113A",
    "answer_label": 1
  },
  {
    "mutant_id": "CG A37T",
    "answer_label": 1
  },
  {
    "mutant_id": "CG T39G A40C T41G T43A A44C A47G C49T G51A A53T C55G A58C A59G C60A",
    "answer_label": 0
  },
  {
    "mutant_id": "CG C72G A73T T74A A75T",
    "answer_label": 0
  },
  {
    "mutant_id": "TA A22T G24T T31C A33C T76A A77G C87T T104G T113A",
    "answer_label": 0
  },
  {
    "mutant_id": "TA A16C G24T T30A T76A T78G C87A A102T T111C T113C",
    "answer_label": 0
  },
  {
    "mutant_id": "CG T31C",
    "answer_label": 1
  },
  {
    "mutant_id": "CG T32A A33T",
    "answer_label": 1
  },
  {
    "mutant_id": "TA T76A T78A T84A C87A T104A T110A T113A",
    "answer_label": 1
  },
  {
    "mutant_id": "CG G115C T116A",
    "answer_label": 1
  },
  {
    "mutant_id": "CG G115T T116G G117T A118C A119C T120G C121A G122T A123C G124T T125G",
    "answer_label": 1
  },
  {
    "mutant_id": "CG A99G",
    "answer_label": 1
  },
  {
    "mutant_id": "CG A44T",
    "answer_label": 1
  },
  {
    "mutant_id": "CG G13C C14G A15T A16T",
    "answer_label": 0
  },
  {
    "mutant_id": "CA T104A T110A T113A",
    "answer_label": 1
  },
  {
    "mutant_id": "CG T28G A29C",
    "answer_label": 0
  },
  {
    "mutant_id": "CG A92G",
    "answer_label": 0
  },
  {
    "mutant_id": "CG A101T",
    "answer_label": 0
  },
  {
    "mutant_id": "CG T48G",
    "answer_label": 1
  },
  {
    "mutant_id": "CG A23G G24T A33T",
    "answer_label": 1
  },
  {
    "mutant_id": "CC T100A A101T A102T",
    "answer_label": 1
  },
  {
    "mutant_id": "CG A11C T12G G13T C14A",
    "answer_label": 0
  },
  {
    "mutant_id": "CG A50C G51T C52A A53C",
    "answer_label": 1
  },
  {
    "mutant_id": "CG A46T A47T T48A C49G",
    "answer_label": 1
  },
  {
    "mutant_id": "CG A16T",
    "answer_label": 0
  },
  {
    "mutant_id": "CG G51A",
    "answer_label": 1
  },
  {
    "mutant_id": "CG T41C",
    "answer_label": 1
  },
  {
    "mutant_id": "CG G106T",
    "answer_label": 0
  },
  {
    "mutant_id": "CG T111C",
    "answer_label": 0
  },
  {
    "mutant_id": "CG T110G",
    "answer_label": 0
  },
  {
    "mutant_id": "CG T5C",
    "answer_label": 1
  },
  {
    "mutant_id": "TA T76A T78G C87A A96C T112G T113C",
    "answer_label": 1
  },
  {
    "mutant_id": "CG A118C A119C",
    "answer_label": 1
  },
  {
    "mutant_id": "CG T28A A29T",
    "answer_label": 1
  },
  {
    "mutant_id": "CG T9G",
    "answer_label": 1
  },
  {
    "mutant_id": "CA A16C G24T T32G A33C A102T T111C T113C",
    "answer_label": 0
  },
  {
    "mutant_id": "CG T114G G115T T116G G117T A118C A119C T120G C121A G122T A123C G124T T125G",
    "answer_label": 1
  },
  {
    "mutant_id": "CG T43G A44C T45G A46C",
    "answer_label": 1
  },
  {
    "mutant_id": "CG A90C A91C A92C A93C",
    "answer_label": 1
  },
  {
    "mutant_id": "TA A23G G24T A33T T76A A77G C87T T104G T113A",
    "answer_label": 1
  },
  {
    "mutant_id": "CG C72A A73C",
    "answer_label": 0
  },
  {
    "mutant_id": "CG T108G",
    "answer_label": 0
  },
  {
    "mutant_id": "CG C18G A19T T20A A21T",
    "answer_label": 0
  },
  {
    "mutant_id": "CG T110A",
    "answer_label": 1
  },
  {
    "mutant_id": "CG T104A T105A",
    "answer_label": 0
  },
  {
    "mutant_id": "CG A107T T108A",
    "answer_label": 0
  },
  {
    "mutant_id": "CA A16C G24T T30A A96C T110A T113A",
    "answer_label": 0
  },
  {
    "mutant_id": "CG A59C",
    "answer_label": 1
  },
  {
    "mutant_id": "CG A2C T3G",
    "answer_label": 1
  },
  {
    "mutant_id": "CG T78C",
    "answer_label": 1
  },
  {
    "mutant_id": "CG C61G A62T C63G A64T",
    "answer_label": 1
  },
  {
    "mutant_id": "CG T32G A33C A34C T35G",
    "answer_label": 1
  },
  {
    "mutant_id": "CG A95C A96C C97A C98A",
    "answer_label": 0
  }
]

Data provenance is the supplement of paper PMC10201428.
